Test system: NCI-H23
testMethodNotes: NCI tumour cell line growth inhibition, 48 h
Calls of active or inactive are those of the source. Cut-off read from the data, not from the text of the source: active = GI50 up to about 1.1 µM and inactive = higher.
Please provide measured GI50 for the entries that follow.

Recorded GI50, per entry:
{"compound": "Cc1cc(N(CCC#N)CCC#N)ccc1/C=C1\\N=C(c2cc([N+](=O)[O-])ccc2Cl)N(NC(=O)c2ccc(/N=C\\c3ccc(N(CCC#N)S(C)(=O)=O)cc3C)cc2)C1=O", "GI50": "> 100 µM (inactive)"}
{"compound": "COc1ccc(/C=C/C(=O)c2cc(CN(C)C)c(O)c(CN(C)C)c2)cc1", "GI50": "46.9 µM (inactive)"}

I need GI50 for every entry listed below, if you could help.
1. COc1ccc(/C=C2\NC(=S)N(/C=C3\C(=O)Oc4ccccc4C3=O)C2=O)cc1OC
2. CCOC(=O)CCC(NC(=O)Cc1ccc(Nc2nc3cc(F)c(F)cc3nc2C(=O)OCC)cc1)C(=O)OCC (centres undefined)
3. CCOC(=O)C(=O)Nc1ccc([N+](=O)[O-])cc1C#N
4. CC1=C(C)SC(=C2Sc3[n-]c(=O)[nH]c(=O)c3S2)S1.CCCC[N+](CCCC)(CCCC)CCCC
5. c1ccc2c(c1)OC(N1CCCC1)c1cnc(N3CCOCC3)nc1-2 (centres undefined)

> 100 µM (inactive)
> 100 µM (inactive)
> 100 µM (inactive)
> 100 µM (inactive)
15.8 µM (inactive)

I need GI50 for every entry listed below, if you could help.
1. COC(=O)C1=C(C(=O)OC)SC(=C2S[C@@H]3[C@@H]4C[C@H]([C@@H]3S2)[C@H]2C(=O)OC(=O)[C@@H]42)S1
2. CC(C)c1cc(C(C)C)c(P2(=O)CC3C(Cl)(Cl)C3(C)C2)c(C(C)C)c1 (centres undefined)

> 100 µM (inactive)
9.55 µM (inactive)

* * *

Notes on GI50 obtained with HCT-15.

{"compound": "CC(=O)c1[nH]c(Nc2ccc(C)cc2)c(C(=S)Nc2ccccc2)c1N", "GI50": "18.3 µM"}
{"compound": "CN1CC[C@]2(C)c3cc(O)ccc3CC3CCCC1C32C (stereo not given in full)", "GI50": "> 100 µM"}
{"compound": "N#CCCN(CCCCN(CCC#N)C(=O)Nc1ccccc1)C(=O)Nc1ccccc1", "GI50": "> 100 µM"}
{"compound": "CC1=C2c3ccccc3N(C(=O)/C=C/C(=O)O)[C@H]2[C@H]2C(=O)OC(=O)[C@H]2C1", "GI50": "> 10 µM"}
{"compound": "O=c1[nH]cnc2c(COCCCO)c[nH]c12", "GI50": "> 100 µM"}

I need GI50 for every entry listed below, if you could help.
1. Clc1ccc(/N=C/c2cc3cc(Br)ccc3nc2Cl)cc1
2. CC(=O)OCC1=CC2CCC3C(C)(CCC[C@]3(C)COC(C)=O)C23CC[C@H]1C3 (stereo not given in full)
3. N#CCc1nc(-c2ccccc2)n[nH]1
4. O=c1/c(=C\c2ccccc2)sc2n1C(c1ccccc1)C1(O)CCCCC1N=2 (stereo not given)
5. Cc1ccc(O)c(C(c2ccc([N+](=O)[O-])cc2)c2cc(C)ccc2O)c1

14.2 µM
> 100 µM
> 100 µM
> 100 µM
8.18 µM

* * *

Tested on: M14
testMethodNotes: NCI tumour cell line growth inhibition, 48 h
Active and inactive are the calls of the source. No stated cut-off is given here; in the data, active = GI50 up to about 1.1 µM and inactive = higher.
Please provide measured GI50 for the entries that follow.

{"molecule": "COc1cccc(CCCNC(=O)Cc2cc(OC)c(OC)cc2CO)c1", "assayValue": "> 100 µM (inactive)"}
{"molecule": "COc1c(CC(C)O)c2c3c(CC(C)O)c(OC)c(=O)c4c(O)cc5c(c6c(cc(O)c(c1=O)c62)OCO5)c43 (configuration not stated) [CERCOSPORIN]", "assayValue": "1.29 µM (inactive)"}
{"molecule": "Cc1ccc(NC(=O)CCC(CC(=O)C(C)(C)C)=NNC(=O)C(=O)NN)cc1C", "assayValue": "> 100 µM (inactive)"}
{"molecule": "CCCCCCC1NN(C(C)=O)C(CCCCCC)NN1C(C)=O (configuration not stated)", "assayValue": "> 100 µM (inactive)"}

I need GI50 for every entry listed below, if you could help.
1. CSC1=N/C(=C\c2c[nH]c3ccccc23)C(=O)N1
2. C/C(=N\NC(=S)Nc1ccccc1)c1nc2cccnc2[nH]1
3. O=C(NC1CCCCC1)NC12CC3CC(CC(F)(C3)C1)C2

73.6 µM (inactive)
3.58 µM (inactive)
> 100 µM (inactive)
